This section presents compounds with their documented Particle Size Distribution D(v, 0.1) values.
assay: Particle size distribution (Malvern laser particle size analyser); assay type: physicochemical; details: dispersed in 0.1% Tween 20 in DI water, sonicated 2 minutes
Write it as a number; the unit μm goes unstated.

Use these answered entries as a reference point.
compound: C[C@@H](c1ncncc1F)[C@](O)(Cn1cncn1)c1ccc(F)cc1F [Example 21, Voriconazole]
units.symbol: μm
quantitative.readout: 5.3
--
compound: C[C@@H](c1ncncc1F)[C@](O)(Cn1cncn1)c1ccc(F)cc1F [Example 24, Voriconazole]
units.symbol: μm
quantitative.readout: 35.9
--
compound: C[C@@H](c1ncncc1F)[C@](O)(Cn1cncn1)c1ccc(F)cc1F [Example 23, Voriconazole]
units.symbol: μm
quantitative.readout: 5.2
--
compound: C[C@@H](c1ncncc1F)[C@](O)(Cn1cncn1)c1ccc(F)cc1F [Example 2, Voriconazole]
units.symbol: μm
quantitative.readout: 36.9
--
compound: C[C@@H](c1ncncc1F)[C@](O)(Cn1cncn1)c1ccc(F)cc1F [Example 19, Voriconazole]
units.symbol: μm
quantitative.readout: 5.7

compound C[C@@H](c1ncncc1F)[C@](O)(Cn1cncn1)c1ccc(F)cc1F [Example 25, Voriconazole] , Particle Size Distribution D(v, 0.1) observed: 5.4

compound C[C@@H](c1ncncc1F)[C@](O)(Cn1cncn1)c1ccc(F)cc1F [Example 18, Voriconazole] , Particle Size Distribution D(v, 0.1) observed: 4.5

compound C[C@@H](c1ncncc1F)[C@](O)(Cn1cncn1)c1ccc(F)cc1F [Example 22, Voriconazole] , Particle Size Distribution D(v, 0.1) observed: 5.2

compound C[C@@H](c1ncncc1F)[C@](O)(Cn1cncn1)c1ccc(F)cc1F [Example 20, Voriconazole] , Particle Size Distribution D(v, 0.1) observed: 4.2
